- Tested on: humane Neuroblastomazellen (SH-SY5Y, ATCC Nummer CRL-2266)
- Assay Overview: Serotonin release in SH-SY5Y neuroblastoma cells (Serotonin-ELISA)
- Assay type: cell-based, human
- Measurement Parameters: SH-SY5Y-Zellen, 10 µM test substance, 5 min stimulation, Krebs-Ringer-HEPES Puffer pH 6,2; relative to 10 µM Nonivamid
Readout Name: Serotoninfreisetzung [% der Positivkontrolle] (% der Positivkontrolle)
Please give a number only; it is taken to be in % der Positivkontrolle.

Reference set (5 entries):
[[record]]
compound = "O=C(C=Cc1ccccc1)OCC=Cc1ccccc1 [Verbindung 11, Cinnamylcinnamat]"
unit_of_measure = "% der Positivkontrolle"
result = 120.83

[[record]]
compound = "CCC(=O)OCC=Cc1ccccc1 [Verbindung 4, Cinnamylpropionat]"
unit_of_measure = "% der Positivkontrolle"
result = 115.57

[[record]]
compound = "CC(C)CC(=O)OC/C=C/c1ccccc1 [Verbindung 7, Cinnamylisovalerianat]"
unit_of_measure = "% der Positivkontrolle"
result = 118.47

[[record]]
compound = "CCCCCCCCC(=O)NCc1ccc(O)c(OC)c1 [Nonivamid, N-Nonanoylvanillylamin, reference compound]"
unit_of_measure = "% der Positivkontrolle"
result = 100

[[record]]
compound = "OCC=Cc1ccccc1 [Verbindung 1, Cinnamylalkohol]"
unit_of_measure = "% der Positivkontrolle"
result = 129.29


Here's the next entry for you.
// query Param item = CC(C)C(=O)OCC=Cc1ccccc1 [Verbindung 6, Cinnamylisobutyrat] ; retrieve measured Serotoninfreisetzung [% der Positivkontrolle].
// result 120.69
